test_description: Phase 1 Study S-(1)-02 plasma pharmacokinetics (every 21 days)
Assay type: in vivo, human
assay_setup: human, plasma, iv, 126 mg/m2; 126 mg/m^2 i.v., first dose, 15:85 Cremophor EL-P/ethanol formulation; read-out: AUC0-24
Protocol: Both trials have enrolled patients with advanced solid tumors, non-Hodgkin's lymphoma or Hodgkin's lymphoma that have recurred or progressed following at least standard therapy; patients with malignancies for which there is no standard therapy; patients who are not candidates for standard therapy; or patients who have chosen not to pursue standard therapy. […] Plasma pharmacokinetics of S-(1) were assessed following the first dose of S-(1) in both studies. […]
readout_label: AUC(0-t) (ng·h/mL)
Expressed in ng·h/mL, but write only the number.

Check the records and state AUC(0-t) for C=C[C@H]1O[C@H]2C[C@H]3OC[C@@]3(OC(C)=O)[C@H]3[C@H](OC(=O)c4ccccc4)[C@]4(C(C)(C)O)CC(OC(=O)[C@H](O)C(CC(C)C)NC(=O)OC(C)(C)C)C(C)=C4[C@H](OC(C)=O)[C@H](O1)[C@]23C (stereo partly shown)
6110
